Values compiled from patent US20100267561A1.

- Tested on: large crabgrass (Digitaria sanguinalis)
- assay_details: Test B pre-/postemergence plant response
- Type: in vivo
- condition_parameters: Postemergence, 31 g ai/ha; scale 0 to 100
value_type: Plant response rating, Crabgrass, Large
Please respond with just the number, no unit label.

Q: Give the value of Plant response rating, Crabgrass, Large reported for the following: Cc1cc(-c2ccc(Cl)cc2)nn1-c1c(OC(=O)c2cccs2)cnn(C)c1=O
Result: 100

Q: Give the value of Plant response rating, Crabgrass, Large reported for the following: CCc1cc(-c2ccc(Br)cc2)nn1-c1c(O)c(C)nn(C)c1=O
Result: 98

Q: Give the value of Plant response rating, Crabgrass, Large reported for the following: Cc1nn(C)c(=O)c(-n2nc(-c3ccc(Cl)cc3)cc2Cl)c1O
Result: 55

Q: Give the value of Plant response rating, Crabgrass, Large reported for the following: CCOC(=O)Oc1cnn(C)c(=O)c1-n1nc(-c2ccc(Cl)cc2)cc1C
Result: 90

Q: Give the value of Plant response rating, Crabgrass, Large reported for the following: CCc1c(C)c(-c2ccc(Br)cc2)nn1-c1c(O)cnn(C)c1=O
Result: 100

----------
- Test system: corn (Zea mays)
- assay_details: Test A pre-/postemergence plant response
- Assay type: in vivo
- condition_parameters: Preemergence, 31 g ai/ha; 0 to 100 scale, 0 is no effect, 100 is complete control
value_type: Plant response rating, Corn
Please respond with just the number, no unit label.

Below are worked cases with known answers.
CCCc1cc(-c2ccc(Cl)cc2)nn1-c1c(O)cnn(C)c1=O [Compound 43] ... 0
CCc1cc(-c2ccc(Cl)cc2)nn1-c1c(O)c(C)nn(C)c1=O ... 0

Q: Tell me its Plant response rating, Corn on corn (Zea mays): CCc1cc(-c2ccc(Br)cc2)nn1-c1c(O)cnn(CC(F)(F)F)c1=O
Result: 0

Q: Tell me its Plant response rating, Corn on corn (Zea mays): CCCC(=O)Oc1cnn(C)c(=O)c1-n1nc(-c2ccc(Cl)cc2)cc1C
Result: 40

Q: Tell me its Plant response rating, Corn on corn (Zea mays): Cc1cc(-c2ccc(Cl)cc2)nn1-c1c(OS(=O)(=O)C(C)C)cnn(C)c1=O
Result: 0

----------
- Tested on: blackgrass (Alopecurus myosuroides)
- assay_details: Test B pre-/postemergence plant response
- Format: in vivo
- condition_parameters: Postemergence, 62 g ai/ha; scale 0 to 100, 0 no effect, 100 complete control
value_type: Plant response rating, Blackgrass
Please respond with just the number, no unit label.

Cc1cc(-c2ccc(Cl)cc2)nn1-c1c(OC(=O)c2ccccc2Cl)cnn(C)c1=O [Compound 38] ... 98
Cc1cc(-c2ccc(Cl)cc2)nn1-c1c(OC(=O)c2cccc(Cl)c2)cnn(C)c1=O [Compound 32] ... 70
CCc1cc(-c2ccc(C(F)(F)F)cc2)nn1-c1c(O)c(OC)nn(C)c1=O [Compound 66] ... 100

Q: Give the value of Plant response rating, Blackgrass reported for the following: CCc1cc(-c2ccc(Br)cc2)nn1-c1c(O)cnn(CC(F)(F)F)c1=O [Compound 73]
Result: 100

Q: Give the value of Plant response rating, Blackgrass reported for the following: Cc1cc(-c2ccc(Cl)cc2)nn1-c1c(OC(=O)Oc2ccccc2)cnn(C)c1=O [Compound 54]
Result: 70

----------
Recorded Plant response rating, Foxtail, Green for the following compounds
- Tested on: green foxtail (Setaria viridis)
- assay_details: Test B pre-/postemergence plant response
- Format: in vivo
- condition_parameters: Postemergence, 16 g ai/ha; scale 0 to 100
Please respond with just the number, no unit label.

Below are worked cases with known answers.
CCc1cc(-c2ccc(Br)cc2)nn1-c1c(O)c(C)nn(C)c1=O ... 95
CCCc1cc(-c2ccc(Cl)cc2)nn1-c1c(O)cnn(C)c1=O ... 75

Q: Give the value of Plant response rating, Foxtail, Green reported for the following: Cc1cc(-c2ccc(Cl)cc2)nn1-c1c(OC(=O)CC(C)C)cnn(C)c1=O
Result: 75

Q: Give the value of Plant response rating, Foxtail, Green reported for the following: CCOC(=O)Oc1cnn(C)c(=O)c1-n1nc(-c2ccc(Cl)cc2)cc1C
Result: 95

----------
Recorded Plant response rating, Barley, Winter for the following compounds
- System: winter barley (Hordeum vulgare)
- assay_details: Test C pre-/postemergence plant response
- Format: in vivo
- condition_parameters: Preemergence, 8 g ai/ha; scale 0 to 100 (0 no effect, 100 complete control)
Please respond with just the number, no unit label.

Below are worked cases with known answers.
Cc1cc(-c2ccc(Cl)cc2)nn1-c1c(OC(=O)CC(C)C)cnn(C)c1=O ... 0
CCc1cc(-c2ccc(Cl)cc2)nn1-c1c(O)cnn(C)c1=O ... 20
Cc1nn(C)c(=O)c(-n2nc(-c3ccc(Cl)cc3)cc2C)c1O ... 0
CCOC(=O)Oc1cnn(C)c(=O)c1-n1nc(-c2ccc(Cl)cc2)cc1C ... 0

Q: Give the value of Plant response rating, Barley, Winter reported for the following: Cc1cc(-c2ccc(C(F)(F)F)c(F)c2)nn1-c1c(O)c(C(F)(F)F)nn(C)c1=O
Result: 0

----------
- Tested on: umbrella sedge (Cyperus difformis)
- assay_details: Test B flooded paddy test plant response
- Format: in vivo
- condition_parameters: Flood (flooded paddy test), 62 g ai/ha; scale 0 to 100, 0 no effect, 100 complete control
value_type: Plant response rating, Sedge, Umbrella
Please respond with just the number, no unit label.

Cc1cc(-c2ccc(Cl)cc2)nn1-c1c(OS(=O)(=O)C(C)C)cnn(C)c1=O ... 0
Cc1cc(-c2ccc(Cl)cc2)nn1-c1c(OS(=O)(=O)c2ccccc2)cnn(C)c1=O ... 0

Q: Give the value of Plant response rating, Sedge, Umbrella reported for the following: CCc1cc(-c2ccc(Cl)cc2)nn1-c1c(O)cnn(C)c1=O
Result: 0

Q: Give the value of Plant response rating, Sedge, Umbrella reported for the following: Cc1cc(-c2ccc(Br)cc2)nn1-c1c(OC(=O)C2CC2)cnn(C)c1=O
Result: 70

Q: Give the value of Plant response rating, Sedge, Umbrella reported for the following: CCCc1cc(-c2ccc(Cl)cc2)nn1-c1c(O)cnn(C)c1=O [Compound 43]
Result: 0

Q: Give the value of Plant response rating, Sedge, Umbrella reported for the following: CCCc1cc(-c2ccc(C(F)(F)F)cc2)nn1-c1c(O)cnn(C)c1=O
Result: 0

Q: Give the value of Plant response rating, Sedge, Umbrella reported for the following: Cc1nn(C)c(=O)c(-n2nc(-c3ccc(Cl)cc3)cc2C)c1O
Result: 50

Q: Give the value of Plant response rating, Sedge, Umbrella reported for the following: CCc1cc(-c2ccc(C(F)(F)F)cc2)nn1-c1c(O)c(OC)nn(C)c1=O
Result: 0

Q: Give the value of Plant response rating, Sedge, Umbrella reported for the following: Cc1cc(-c2ccc(Cl)cc2)nn1-c1c(OC(=O)Oc2ccccc2)cnn(C)c1=O
Result: 0

Q: Give the value of Plant response rating, Sedge, Umbrella reported for the following: Cc1cc(-c2ccc(Cl)cc2)nn1-c1c(OC(=O)c2cccs2)cnn(C)c1=O
Result: 0

Q: Give the value of Plant response rating, Sedge, Umbrella reported for the following: Cc1ccc(-c2ccc(Cl)cc2)cc1-c1c(O)cnn(C)c1=O
Result: 50

Q: Give the value of Plant response rating, Sedge, Umbrella reported for the following: CCCc1cc(-c2ccc(Cl)cc2)nn1-c1c(O)cnn(C)c1=O [Compound 76]
Result: 0

Q: Give the value of Plant response rating, Sedge, Umbrella reported for the following: Cc1cc(-c2ccc(Cl)cc2)nn1-c1c(OC(=O)c2cccc(Cl)c2)cnn(C)c1=O
Result: 30

----------
- Tested on: barnyardgrass (Echinochloa crus-galli)
- assay_details: Test A pre-/postemergence plant response
- Assay type: in vivo
- condition_parameters: Preemergence, 31 g ai/ha; 0 to 100 scale, 0 is no effect, 100 is complete control
Recorded Plant response rating, Barnyardgrass for the following molecules
Please respond with just the number, no unit label.

Below are worked cases with known answers.
CCc1cc(-c2ccc(C(F)(F)F)cc2)nn1-c1c(O)c(OC)nn(C)c1=O ... 10
Cc1cc(-c2ccc(Cl)cc2)nn1-c1c(OS(=O)(=O)c2ccccc2)cnn(C)c1=O ... 80
CCCc1cc(-c2ccc(Cl)cc2)nn1-c1c(O)cnn(C)c1=O ... 40
Cc1cc(-c2ccc(C(F)(F)F)c(F)c2)nn1-c1c(O)c(C(F)(F)F)nn(C)c1=O ... 80
CCc1cc(-c2ccc(Cl)cc2)nn1-c1c(O)c(C)nn(C)c1=O ... 50

Q: Tell me its Plant response rating, Barnyardgrass on barnyardgrass (Echinochloa crus-galli): CCc1cc(-c2ccc(Br)cc2)nn1-c1c(O)c(C)nn(C)c1=O
Result: 100

Q: Tell me its Plant response rating, Barnyardgrass on barnyardgrass (Echinochloa crus-galli): CC(C)Cc1cc(-c2ccc(Cl)cc2)nn1-c1c(O)cnn(C)c1=O
Result: 0

Q: Tell me its Plant response rating, Barnyardgrass on barnyardgrass (Echinochloa crus-galli): Cc1nn(C)c(=O)c(-n2nc(-c3ccc(Cl)cc3)cc2Cl)c1O
Result: 90

Q: Tell me its Plant response rating, Barnyardgrass on barnyardgrass (Echinochloa crus-galli): CCCC(=O)Oc1cnn(C)c(=O)c1-n1nc(-c2ccc(Cl)cc2)cc1C
Result: 80
